Collected IC50 at 72 h values appear next to each entry.
# METHOD SUMMARY: Cytotoxic MTS assay, MRC-5
# Assay type: cell-based, human
# ASSAY CONTEXT: human, MRC-5 cells (noncancerous lung fibroblasts); MTS, 72 h of incubation
ASSAY READOUT: IC50 at 72 h

INSERT INTO assay_data (compound, assay_readout, value_reported) VALUES
  ('COc1cc(C(=O)OCCC[S+]([O-])c2ccnc3cc(Cl)ccc23)cc(OC)c1OC (stereo not drawn)', 'IC50 at 72 h', '29.9 µM'),
  ('Cc1ccc([N+](=O)[O-])c(C(=O)OCCC[S+]([O-])c2ccnc3cc(Cl)ccc23)c1 (stereo not drawn)', 'IC50 at 72 h', '29.4 µM'),
  ('COc1ccc(C(=O)OCC[S+]([O-])c2ccnc3cc(Cl)ccc23)cc1[N+](=O)[O-] (stereo not drawn)', 'IC50 at 72 h', '27.8 µM'),
  ('COc1ccccc1C(=O)OCC[S+]([O-])c1ccnc2cc(Cl)ccc12 (stereo not drawn)', 'IC50 at 72 h', '28.2 µM'),
  ('COc1cc(C(=O)OCCS(=O)(=O)c2cc[n+]([O-])c3cc(Cl)ccc23)cc(OC)c1OC', 'IC50 at 72 h', '5.79 µM'),
  ('COc1ccc(C(=O)OCCC[S+]([O-])c2ccnc3cc(Cl)ccc23)cc1[N+](=O)[O-] (stereo not drawn)', 'IC50 at 72 h', '23.7 µM'),
  ('[O-][S+](CCO)c1ccnc2cc(Cl)ccc12 (stereo not drawn)', 'IC50 at 72 h', '26.5 µM'),
  ('O=C(OCCC[S+]([O-])c1ccnc2cc(Cl)ccc12)c1ccc(C(F)(F)F)cc1 (stereo not drawn)', 'IC50 at 72 h', '29.4 µM'),
  ('Cc1cc(C)cc(C(=O)OCC[S+]([O-])c2ccnc3cc(Cl)ccc23)c1 (stereo not drawn)', 'IC50 at 72 h', '26.9 µM');

====

Collected melting point values appear next to each entry.
ASSAY READOUT: melting point

INSERT INTO results (molecule, assay_readout, value_reported) VALUES
  ('COc1ccc(C(=O)OCCSc2ccnc3cc(Cl)ccc23)cc1OC', 'melting point', '109 to 110 °C'),
  ('COc1cc(C(=O)OCCCSc2ccnc3cc(Cl)ccc23)cc(OC)c1OC', 'melting point', '98 to 100 °C'),
  ('CC(C)(C)c1ccc(C(=O)OCC[S+]([O-])c2ccnc3cc(Cl)ccc23)cc1 (stereo not drawn)', 'melting point', '106 °C'),
  ('COc1ccc(C(=O)OCCCSc2ccnc3cc(Cl)ccc23)c(OC)c1', 'melting point', '74 to 76 °C'),
  ('O=C(OCCCSc1ccnc2cc(Cl)ccc12)c1ccccc1F', 'melting point', '112 to 113 °C'),
  ('CC(C)(C)c1ccc(C(=O)OCCSc2ccnc3cc(Cl)ccc23)cc1', 'melting point', '120 to 122 °C'),
  ('COc1ccccc1C(=O)OCCCSc1ccnc2cc(Cl)ccc12', 'melting point', '95 to 97 °C'),
  ('O=C(OCCSc1ccnc2cc(Cl)ccc12)c1ccccc1Cl', 'melting point', '108 °C'),
  ('O=C(OCCCSc1ccnc2cc(Cl)ccc12)c1ccc(C(F)(F)F)cc1', 'melting point', '122 to 124 °C');

====

Collected IC50 values appear next to each entry.
# System: MRC-5 (noncancerous human lung fibroblasts)
# METHOD SUMMARY: Cytotoxic MTS assay, MRC-5
# Type: cell-based
ASSAY READOUT: IC50 (µM)

INSERT INTO measurements (molecule, target_or_system, result_units, value_reported) VALUES
  ('COc1ccc(C(=O)OCCS(=O)(=O)c2cc[n+]([O-])c3cc(Cl)ccc23)cc1 [Compound 63]', 'MRC-5 (noncancerous human lung fibroblasts)', 'µM', 4),
  ('COc1ccc(OC)c(C(=O)OCCCS(=O)(=O)c2cc[n+]([O-])c3cc(Cl)ccc23)c1 [Compound 75]', 'MRC-5 (noncancerous human lung fibroblasts)', 'µM', 21.5),
  ('O=C(OCCS(=O)(=O)c1cc[n+]([O-])c2cc(Cl)ccc12)c1ccc(C(F)(F)F)cc1 [Compound 72]', 'MRC-5 (noncancerous human lung fibroblasts)', 'µM', 24.4);

====

Collected IC50 values appear next to each entry.
# Tested on: CCRF-CEM (childhood T cell acute lymphoblastic leukemia)
# METHOD SUMMARY: Cytotoxic MTS assay, CCRF-CEM
# Format: cell-based, human
ASSAY READOUT: IC50 (nM)

INSERT INTO assay_data (molecule, assay_readout, value_reported) VALUES
  ('COc1ccc(OC)c(C(=O)OCCCS(=O)(=O)c2cc[n+]([O-])c3cc(Cl)ccc23)c1 [Compound 75]', 'IC50', 1450),
  ('COc1ccccc1C(=O)OCCCS(=O)(=O)c1cc[n+]([O-])c2cc(Cl)ccc12 [Compound 78]', 'IC50', 2630),
  ('COc1cc(OC)c(C(=O)OCCCS(=O)(=O)c2cc[n+]([O-])c3cc(Cl)ccc23)cc1OC [Compound 76]', 'IC50', 2220),
  ('Cc1cc(C)cc(C(=O)OCCCS(=O)(=O)c2cc[n+]([O-])c3cc(Cl)ccc23)c1 [Compound 81]', 'IC50', 1200),
  ('Cc1ccc([N+](=O)[O-])c(C(=O)OCCS(=O)(=O)c2cc[n+]([O-])c3cc(Cl)ccc23)c1 [Compound 70]', 'IC50', 1160),
  ('COc1ccc(C(=O)OCCCS(=O)(=O)c2cc[n+]([O-])c3cc(Cl)ccc23)cc1[N+](=O)[O-] [Compound 79]', 'IC50', 1050),
  ('COc1cccc(C(=O)OCCS(=O)(=O)c2cc[n+]([O-])c3cc(Cl)ccc23)c1OC [Compound 64]', 'IC50', 710),
  ('COc1ccccc1C(=O)OCCS(=O)(=O)c1cc[n+]([O-])c2cc(Cl)ccc12 [Compound 68]', 'IC50', 1230),
  ('COc1cc(C(=O)OCCCS(=O)(=O)c2cc[n+]([O-])c3cc(Cl)ccc23)cc(OC)c1OC [Compound 77]', 'IC50', 1580),
  ('COc1ccc(C(=O)OCCS(=O)(=O)c2cc[n+]([O-])c3cc(Cl)ccc23)cc1[N+](=O)[O-] [Compound 69]', 'IC50', 1380),
  ('Cc1ccc([N+](=O)[O-])c(C(=O)OCCCS(=O)(=O)c2cc[n+]([O-])c3cc(Cl)ccc23)c1 [Compound 80]', 'IC50', 1490),
  ('O=C(OCCS(=O)(=O)c1cc[n+]([O-])c2cc(Cl)ccc12)c1ccc(C(F)(F)F)cc1 [Compound 72]', 'IC50', 2140),
  ('COc1ccc(C(=O)OCCS(=O)(=O)c2cc[n+]([O-])c3cc(Cl)ccc23)cc1 [Compound 63]', 'IC50', 770),
  ('O=C(OCCCS(=O)(=O)c1cc[n+]([O-])c2cc(Cl)ccc12)c1ccc(C(F)(F)F)cc1 [Compound 82]', 'IC50', 1050),
  ('COc1cccc(C(=O)OCCCS(=O)(=O)c2cc[n+]([O-])c3cc(Cl)ccc23)c1OC [Compound 74]', 'IC50', 1410);

====

# Tested on: HCT116 (colorectal carcinoma)
# METHOD SUMMARY: Cytotoxic MTS assay, HCT116
# Assay type: cell-based, human
# Procedure: In vitro cytotoxic activity of final compounds 5–82 was evaluated after 3 days of incubation against eight cell lines derived from human solid tumors including lung (A549 cells) and colon (HCT116 and HCT116p53−/−) carcinomas, as well as leukemia cell lines (CCRF-CEM, CEM-DNR, K562, and K562-TAX) and osteosarcoma (U2OS cells). […] Cytotoxic activity was determined by MTS assay following 72 h of incubation. […]
Collected IC50 values appear next to each entry.
ASSAY READOUT: IC50

INSERT INTO measurements (chemical_structure, value_reported) VALUES
  ('COc1ccc(C(=O)OCCS(=O)(=O)c2cc[n+]([O-])c3cc(Cl)ccc23)cc1', '16.2 µM'),
  ('COc1cc(OC)c(C(=O)OCCCS(=O)(=O)c2cc[n+]([O-])c3cc(Cl)ccc23)cc1OC', '7.96 µM'),
  ('O=C(OCCS(=O)(=O)c1cc[n+]([O-])c2cc(Cl)ccc12)c1ccc(C(F)(F)F)cc1', '17.3 µM'),
  ('COc1ccc(C(=O)OCCCS(=O)(=O)c2cc[n+]([O-])c3cc(Cl)ccc23)cc1', '1.99 µM'),
  ('COc1ccccc1C(=O)OCCCS(=O)(=O)c1cc[n+]([O-])c2cc(Cl)ccc12', '5.64 µM'),
  ('COc1ccc(OC)c(C(=O)OCCS(=O)(=O)c2cc[n+]([O-])c3cc(Cl)ccc23)c1', '8.83 µM'),
  ('COc1ccc(OC)c(C(=O)OCCCS(=O)(=O)c2cc[n+]([O-])c3cc(Cl)ccc23)c1', '5.37 µM'),
  ('COc1cc(C(=O)OCCCS(=O)(=O)c2cc[n+]([O-])c3cc(Cl)ccc23)cc(OC)c1OC', '6.51 µM'),
  ('O=C(OCCCS(=O)(=O)c1cc[n+]([O-])c2cc(Cl)ccc12)c1ccc(C(F)(F)F)cc1', '4.9 µM'),
  ('COc1ccc(C(=O)OCCCS(=O)(=O)c2cc[n+]([O-])c3cc(Cl)ccc23)cc1[N+](=O)[O-]', '3.81 µM');

# credit: paper PMC9607427
